All values here come from ChEMBL document CHEMBL5370578.

assay: AUC (0 to 24 hrs) in Slc:ICR mouse at 1 mg/kg, po measured for 8 to 24 hrs by LC/MS/MS analysis; assay type: ADME, organism-based; set-up: dose 1 mg/kg, time upper 24 hrs, time lower 8 hrs, route po; details: in vivo
property-name: AUC(0-t) (ng·h/mL)
Unit ng·h/mL implied. Number only.

Reported AUC(0-t) for Cc1cc(-c2cc3c4c(c2)n(Cc2ccccc2)c(=O)n4CCO3)cn(C)c1=O : what is it? 2420

====

target: Bromodomain-containing protein 3 (Homo sapiens, UniProt Q15059); assay: Displacement of Biotin-tagged [Lys(5,8,12,16)Ac]H4(1 to 21) peptide from GST-tagged BRD3-BD1 (unknown origin) incubated for 3 hrs by HTRF based TR-FRET assay
Sequence (Q15059 whole entry): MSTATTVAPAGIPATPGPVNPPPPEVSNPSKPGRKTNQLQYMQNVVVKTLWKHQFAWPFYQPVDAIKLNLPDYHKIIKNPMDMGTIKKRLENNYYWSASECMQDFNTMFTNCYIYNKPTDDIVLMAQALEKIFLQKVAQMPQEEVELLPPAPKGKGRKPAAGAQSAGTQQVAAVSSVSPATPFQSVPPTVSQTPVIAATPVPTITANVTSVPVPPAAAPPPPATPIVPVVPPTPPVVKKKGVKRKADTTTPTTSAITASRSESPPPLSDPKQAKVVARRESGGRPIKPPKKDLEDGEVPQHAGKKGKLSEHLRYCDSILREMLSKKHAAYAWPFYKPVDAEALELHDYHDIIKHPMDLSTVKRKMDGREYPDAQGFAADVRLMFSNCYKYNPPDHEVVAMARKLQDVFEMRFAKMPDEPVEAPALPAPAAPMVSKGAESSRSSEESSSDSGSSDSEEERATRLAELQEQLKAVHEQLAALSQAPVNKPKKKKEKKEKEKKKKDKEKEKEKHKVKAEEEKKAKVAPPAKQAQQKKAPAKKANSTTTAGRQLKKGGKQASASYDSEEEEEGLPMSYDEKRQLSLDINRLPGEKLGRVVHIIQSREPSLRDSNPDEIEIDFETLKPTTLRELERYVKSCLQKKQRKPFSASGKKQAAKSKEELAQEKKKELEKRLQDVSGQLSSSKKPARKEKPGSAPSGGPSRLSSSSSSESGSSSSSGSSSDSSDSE
property-name: IC50 (nM)
Unit nM implied. Number only.

Reported IC50 for Cc1cc(-c2cc3c4c(c2)n(Cc2ccccc2)c(=O)n4CCO3)cn(C)c1=O : what is it? 25

====

assay: Apparent permeability of the compound across apical side to basolateral side in human Caco-2 cells incubated for 2 hrs by LC-MS/MS analysis
property-name: Papp A→B at 2 h (×10⁻⁶ cm/s)
Unit ×10⁻⁶ cm/s implied. Number only.

Sample answers from the record:
- compound-string: "CCS(=O)(=O)NCc1cc(-c2cc(C)c(=O)n(C)c2)cc2c1n(C)c(=O)n2Cc1ccccc1"
  property-name: "Papp A→B at 2 h"
  unit-of-measurement: "×10⁻⁶ cm/s"
  experimental-result: 0.03
- compound-string: "CCS(=O)(=O)NCc1cc(-c2cc(C)c(=O)n(C)c2)cc2c1[nH]c(=O)n2Cc1ccccc1"
  property-name: "Papp A→B at 2 h"
  unit-of-measurement: "×10⁻⁶ cm/s"
  experimental-result: 0.11

Reported Papp A→B at 2 h for CCS(=O)(=O)Cc1cc(-c2cc(C)c(=O)n(C)c2)cc2c1[nH]c(=O)n2Cc1ccccc1 : what is it? 0.02

====

In this section we review reported CLH values for a set of compounds.
assay: Stability in mouse liver microsomes assessed as intrinsic clearance measured per mg protein
Unit mL/min implied. Number only.

Sample answers from the record:
- compound-string: "Cc1cc(-c2ccc3cnn(Cc4ccccc4)c3c2)cn(C)c1=O"
  property-name: "CLH"
  experimental-result: 42
- compound-string: "Cc1cc(-c2ccc3[nH]c(=O)n(Cc4ccccc4)c3c2)cn(C)c1=O"
  property-name: "CLH"
  experimental-result: 15

Kindly review the next compound as well.
Reported CLH for Cc1cc(-c2ccc3nnn(Cc4ccccc4)c3c2)cn(C)c1=O : what is it? 23

====

molecular target: Bromodomain-containing protein 2 (Homo sapiens); experiment: Displacement of Biotin-tagged [Lys(5,8,12,16)Ac]H4(1 to 21) peptide from GST-tagged BRD2-BD1 (unknown origin) incubated for 3 hrs by HTRF based TR-FRET assay
property-name: IC50 (nM)
Unit nM implied. Number only.

Reported IC50 for Cc1cc(-c2cc3c4c(c2)n(Cc2ccccc2)c(=O)n4CCO3)cn(C)c1=O : what is it? 19

====

assay: Volume of distribution in Slc:ICR mouse at 0.5 mg/kg, iv measured for 4 to 8 hrs by LC/MS/MS analysis; format: ADME, organism-based; conditions: in vivo, time 4-8 hrs
property-name: Vd (L/kg)
Unit L/kg implied. Number only.

Reported Vd for Cc1cc(-c2cc3c4c(c2)n(Cc2ccccc2)c(=O)n4CCO3)cn(C)c1=O : what is it? 1.18
